test: Multiple-dose PK, 2-hour SC infusion once daily for 14 days, Japanese prostate cancer patients; type: in vivo, human; details: male, human, in vivo, sc, 0.5 mg/day, Japanese prostate cancer patients, 2-hour SC infusion 0.5 mg/day, Day 1, mean; read-out: T1/2 (converted)
Where a SMILES comes first, the peptide text is derived from it. [ ]: non-standard residue; d: D form. Arg(Me) = CNC(=N)NCCC[C@H](N)C(=O)O; Hyp = O=C(O)[C@@H]1C[C@@H](O)CN1; azaGly = NNC(=O)O

{"compound": "CC(=O)O.CNC(=N)NCCC[C@H](NC(=O)[C@H](CC(C)C)NC(=O)NNC(=O)[C@H](Cc1ccccc1)NC(=O)[C@@H](NC(=O)[C@H](CC(N)=O)NC(=O)[C@@H]1C[C@@H](O)CN1C(=O)[C@@H](Cc1ccc(O)cc1)NC(C)=O)[C@@H](C)O)C(=O)N[C@@H](Cc1c[nH]c2ccccc12)C(N)=O [API-MA] (Ac-[dY][Hyp]NTF[azaGly]L[Arg(Me)]W-NH2)", "unit.name": "h", "half-life": 3.48}

====

assay: Pharmacokinetics in monkeys after SC and IV administration; conditions: monkey, in vivo, sc, 0.1 mg/kg
Where a SMILES comes first, the peptide text is derived from it. [ ]: non-standard residue; d: D form. Arg(Me) = CNC(=N)NCCC[C@H](N)C(=O)O; Hyp = O=C(O)[C@@H]1C[C@@H](O)CN1; azaGly = NNC(=O)O

{"compound": "CNC(=N)NCCC[C@H](NC(=O)[C@H](CC(C)C)NC(=O)NNC(=O)[C@H](Cc1ccccc1)NC(=O)[C@@H](NC(=O)[C@H](CC(N)=O)NC(=O)[C@@H]1C[C@@H](O)CN1C(=O)[C@@H](Cc1ccc(O)cc1)NC(C)=O)[C@@H](C)O)C(=O)N[C@@H](Cc1c[nH]c2ccccc12)C(N)=O [Compound 1] (Ac-[dY][Hyp]NTF[azaGly]L[Arg(Me)]W-NH2)", "AUC(0-t) / ng·h/mL": 295}

====

experiment: Pharmacokinetics in monkeys after SC and IV administration; conditions: monkey, in vivo, iv, 1 mg/kg, T½ γ (elimination)
Where a SMILES comes first, the peptide text is derived from it. [ ]: non-standard residue; d: D form. Arg(Me) = CNC(=N)NCCC[C@H](N)C(=O)O; Hyp = O=C(O)[C@@H]1C[C@@H](O)CN1; azaGly = NNC(=O)O

{"compound": "CNC(=N)NCCC[C@H](NC(=O)[C@H](CC(C)C)NC(=O)NNC(=O)[C@H](Cc1ccccc1)NC(=O)[C@@H](NC(=O)[C@H](CC(N)=O)NC(=O)[C@@H]1C[C@@H](O)CN1C(=O)[C@@H](Cc1ccc(O)cc1)NC(C)=O)[C@@H](C)O)C(=O)N[C@@H](Cc1c[nH]c2ccccc12)C(N)=O [Compound 1] (Ac-[dY][Hyp]NTF[azaGly]L[Arg(Me)]W-NH2)", "half-life [h]": 3.2}

====

Test: Pharmacokinetics in rats after SC and IV administration
Conditions: rat, in vivo; rats, IV 1 mg/kg, plasma concentration at 5 minutes; read-out: Cmax (C5 min)
Experimental: The PK of API-MA was studied in rats after SC and IV administration. The PK linearity of API-MA was also investigated in rats after IV administration. The plasma C5min and AUC(0-24) values increased dose-proportionally. […] The elimination T1/2 values were 0.4 hours at 0.01 and 0.1 mg/kg and 0.5 hours at 1 mg/kg. These findings indicate that the PK of API-FB was linear in rats after single IV administration over the dose range of 0.01 to 1 mg/kg. […]
Where a SMILES comes first, the peptide text is derived from it. [ ]: non-standard residue; d: D form. Arg(Me) = CNC(=N)NCCC[C@H](N)C(=O)O; Hyp = O=C(O)[C@@H]1C[C@@H](O)CN1; azaGly = NNC(=O)O
metric.name: Cmax at 5 min (ng/mL)

{"compound": "CC(=O)O.CNC(=N)NCCC[C@H](NC(=O)[C@H](CC(C)C)NC(=O)NNC(=O)[C@H](Cc1ccccc1)NC(=O)[C@@H](NC(=O)[C@H](CC(N)=O)NC(=O)[C@@H]1C[C@@H](O)CN1C(=O)[C@@H](Cc1ccc(O)cc1)NC(C)=O)[C@@H](C)O)C(=O)N[C@@H](Cc1c[nH]c2ccccc12)C(N)=O [API-MA] (Ac-[dY][Hyp]NTF[azaGly]L[Arg(Me)]W-NH2)", "measured.number": 2670}

====

test: Single dose PK, phase 1, healthy Japanese men; format: in vivo, human; conditions: male, human, plasma, sc, 0.1 mg, single SC bolus 0.1 mg, read-out: Tmax, median (range)
Where a SMILES comes first, the peptide text is derived from it. [ ]: non-standard residue; d: D form. Arg(Me) = CNC(=N)NCCC[C@H](N)C(=O)O; Hyp = O=C(O)[C@@H]1C[C@@H](O)CN1; azaGly = NNC(=O)O
metric.name: Tmax (min)

{"molecule": "CC(=O)O.CNC(=N)NCCC[C@H](NC(=O)[C@H](CC(C)C)NC(=O)NNC(=O)[C@H](Cc1ccccc1)NC(=O)[C@@H](NC(=O)[C@H](CC(N)=O)NC(=O)[C@@H]1C[C@@H](O)CN1C(=O)[C@@H](Cc1ccc(O)cc1)NC(C)=O)[C@@H](C)O)C(=O)N[C@@H](Cc1c[nH]c2ccccc12)C(N)=O [API-MA] (Ac-[dY][Hyp]NTF[azaGly]L[Arg(Me)]W-NH2)", "metric.name": "Tmax", "measured.number": 22.5}

====

experiment: Single dose PK, phase 1, healthy European men; format: in vivo, human; settings: male, human, urine, single SC 0.01 mg, geometric mean, read-out: Fe (urine)
Where a SMILES comes first, the peptide text is derived from it. [ ]: non-standard residue; d: D form. Arg(Me) = CNC(=N)NCCC[C@H](N)C(=O)O; Hyp = O=C(O)[C@@H]1C[C@@H](O)CN1; azaGly = NNC(=O)O
metric.name: dose excreted (%)

{"compound": "CC(=O)O.CNC(=N)NCCC[C@H](NC(=O)[C@H](CC(C)C)NC(=O)NNC(=O)[C@H](Cc1ccccc1)NC(=O)[C@@H](NC(=O)[C@H](CC(N)=O)NC(=O)[C@@H]1C[C@@H](O)CN1C(=O)[C@@H](Cc1ccc(O)cc1)NC(C)=O)[C@@H](C)O)C(=O)N[C@@H](Cc1c[nH]c2ccccc12)C(N)=O [API-MA] (Ac-[dY][Hyp]NTF[azaGly]L[Arg(Me)]W-NH2)", "measured.number": 3.71}

====

experiment: Single dose PK, phase 1, healthy Japanese men; type: in vivo, human; details: male, human, plasma, sc, 0.04 mg, single SC bolus 0.04 mg, mean, read-out: T½ (converted)
Where a SMILES comes first, the peptide text is derived from it. [ ]: non-standard residue; d: D form. Arg(Me) = CNC(=N)NCCC[C@H](N)C(=O)O; Hyp = O=C(O)[C@@H]1C[C@@H](O)CN1; azaGly = NNC(=O)O

{"compound": "CC(=O)O.CNC(=N)NCCC[C@H](NC(=O)[C@H](CC(C)C)NC(=O)NNC(=O)[C@H](Cc1ccccc1)NC(=O)[C@@H](NC(=O)[C@H](CC(N)=O)NC(=O)[C@@H]1C[C@@H](O)CN1C(=O)[C@@H](Cc1ccc(O)cc1)NC(C)=O)[C@@H](C)O)C(=O)N[C@@H](Cc1c[nH]c2ccccc12)C(N)=O [API-MA] (Ac-[dY][Hyp]NTF[azaGly]L[Arg(Me)]W-NH2)", "unit.name": "min", "half-life": 201}

====

assay: Single dose PK, phase 1, healthy Japanese men; format: in vivo, human; conditions: male, human, urine, sc, 0.004 to 0.5 mg, bolus and infusion, read-out: Mean Fe, range over cohorts
Where a SMILES comes first, the peptide text is derived from it. [ ]: non-standard residue; d: D form. Arg(Me) = CNC(=N)NCCC[C@H](N)C(=O)O; Hyp = O=C(O)[C@@H]1C[C@@H](O)CN1; azaGly = NNC(=O)O

{"compound": "CC(=O)O.CNC(=N)NCCC[C@H](NC(=O)[C@H](CC(C)C)NC(=O)NNC(=O)[C@H](Cc1ccccc1)NC(=O)[C@@H](NC(=O)[C@H](CC(N)=O)NC(=O)[C@@H]1C[C@@H](O)CN1C(=O)[C@@H](Cc1ccc(O)cc1)NC(C)=O)[C@@H](C)O)C(=O)N[C@@H](Cc1c[nH]c2ccccc12)C(N)=O [API-MA] (Ac-[dY][Hyp]NTF[azaGly]L[Arg(Me)]W-NH2)", "dose excreted": "4.24 to 7.1%"}

====

Assay: Pharmacokinetics in rats after SC and IV administration
Settings: rat, in vivo, sc, 10 mg/kg, rats, SC 10 mg/kg, mean ± SD (n = 5); read-out: AUC(0-24)
Description: The PK of API-MA was studied in rats after SC and IV administration. The PK linearity of API-MA was also investigated in rats after IV administration. The plasma C5min and AUC(0-24) values increased dose-proportionally. […] The elimination T1/2 values were 0.4 hours at 0.01 and 0.1 mg/kg and 0.5 hours at 1 mg/kg. These findings indicate that the PK of API-FB was linear in rats after single IV administration over the dose range of 0.01 to 1 mg/kg. […]
Where a SMILES comes first, the peptide text is derived from it. [ ]: non-standard residue; d: D form. Arg(Me) = CNC(=N)NCCC[C@H](N)C(=O)O; Hyp = O=C(O)[C@@H]1C[C@@H](O)CN1; azaGly = NNC(=O)O
metric.name: AUC(0-t)

{"compound": "CC(=O)O.CNC(=N)NCCC[C@H](NC(=O)[C@H](CC(C)C)NC(=O)NNC(=O)[C@H](Cc1ccccc1)NC(=O)[C@@H](NC(=O)[C@H](CC(N)=O)NC(=O)[C@@H]1C[C@@H](O)CN1C(=O)[C@@H](Cc1ccc(O)cc1)NC(C)=O)[C@@H](C)O)C(=O)N[C@@H](Cc1c[nH]c2ccccc12)C(N)=O [API-MA] (Ac-[dY][Hyp]NTF[azaGly]L[Arg(Me)]W-NH2)", "result": "309 ng·h/mL"}
